Entry source: patent US20250197488A1

Target: T1, IL-11 (Cat. 12225-HNCE, Sino Biological Inc.) (UniProt P20809 22-199, limits assumed)
T1 sequence (looked up): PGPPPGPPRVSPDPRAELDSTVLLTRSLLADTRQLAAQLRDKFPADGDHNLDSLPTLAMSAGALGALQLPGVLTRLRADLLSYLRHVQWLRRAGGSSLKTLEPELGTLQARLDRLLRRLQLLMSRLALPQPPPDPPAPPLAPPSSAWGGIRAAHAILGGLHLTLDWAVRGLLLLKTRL
Assay: cell-based or functional assay
// values below are reported Blocking activity (IC50), STAT3-luc reporter
Just the number in µg/mL, nothing appended.

INSERT INTO results (binder, recorded_measurement) VALUES
  ('hz18A10-VHm6 + hz18A10-VLm9 (antibody, V domains shown, Constant regions not restated for this antibody) VH: EVQLVQSGAEVKKPGASVKVSCKASGYTFNHYDMDWVRQAPGQGLEWMGTIYPGNGDTSYNQKFKGRVTMTRDTSTSTVYMELSSLRSEDTAVYYCARGDLYALDYWGQGTLVTVSS VL: DIQMTQSPSSLSASVGDRVTITCKASQSVYSDVAWYQQKPGKAPKLLIYSASNRYTGVPSRFSGSGSGTDFTFTISSLQPEDIATYYCQHDYSSPYTFGQGTKLEIK', 0.034);

Given item hz8C8-VHm1-m12 + hz8C8-VLm7-m2 (antibody, human IgG1, kappa, V domains shown, human IgG1 constant regions) VH: EVQLVESGGGLVQPGGSLRLSCAASGFTFSSFGMHWVRQAPGKGLEWVAYITPGSNTIYYADTVKGRFTISRDNAKNSLYLQMNSLRAEDTAVYYCAREYYSYDEGGAYWGQGTLVTVSS VL: EIVLTQSPATLSLSPGERATLSCSVSDLIPSQYLHWYQQKPGQAPRLLIYDASNLASGIPARFSGSGSGTDFTLTISSLEPEDFAVYYCQQGVDVPFTFGQGTKLEIKR , the value recorded as its Blocking activity (IC50), STAT3-luc reporter is 0.012

Given item hz18A10-VH + hz18A10-VLm13 (antibody, V domains shown, Constant regions not restated for this antibody) VH: EVQLVQSGAEVKKPGASVKVSCKASGYTFTTYNMDWVRQAPGQGLEWMGTIYPGNGDTSYNQKFKGRVTMTRDTSTSTVYMELSSLRSEDTAVYYCARGDLYALDYWGQGTLVTVSS VL: DIQMTQSPSSLSASVGDRVTITCKASQSVSNDVAWYQQKPGKAPKLLIYSASRRYTGVPSRFSGSGSGTDFTFTISSLQPEDIATYYCQHDYSSPYTFGQGTKLEIK , the value recorded as its Blocking activity (IC50), STAT3-luc reporter is 14.2

Given item hz18A10-VH + hz18A10-VLm1 (antibody, V domains shown, Constant regions not restated for this antibody) VH: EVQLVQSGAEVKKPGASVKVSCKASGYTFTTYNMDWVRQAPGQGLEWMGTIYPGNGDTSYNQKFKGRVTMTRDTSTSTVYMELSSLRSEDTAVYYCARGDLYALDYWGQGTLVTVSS VL: DIQMTQSPSSLSASVGDRVTITCKASKSVSNDVAWYQQKPGKAPKLLIYSASNRYTGVPSRFSGSGSGTDFTFTISSLQPEDIATYYCQHDYSSPYTFGQGTKLEIK , the value recorded as its Blocking activity (IC50), STAT3-luc reporter is 19.3

Given item hz18A10-VHm11 + hz18A10-VLm19 (antibody, V domains shown, Constant regions not restated for this antibody) VH: EVQLVQSGAEVKKPGASVKVSCKASGYTFTHYNMDWVRQAPGQGLEWMGTIYPGNGDTSYNQKFKGRVTMTRDTSTSTVYMELSSLRSEDTAVYYCARGDLYALDYWGQGTLVTVSS VL: DIQMTQSPSSLSASVGDRVTITCKASQSVYRDVAWYQQKPGKAPKLLIYSASNRYTGVPSRFSGSGSGTDFTFTISSLQPEDIATYYCQHDYSSPYTFGQGTKLEIK , the value recorded as its Blocking activity (IC50), STAT3-luc reporter is 0.112

Given item hz8C8-VHm1-m8 + hz8C8-VLm7-m2 (antibody, human IgG1, kappa, V domains shown, human IgG1 constant regions) VH: EVQLVESGGGLVQPGGSLRLSCAASGFTFSSFGMHWVRQAPGKGLEWIGYITPGSNTIYYADTVKGRFTISRDNAKNSLYLQMNSLRAEDTAVYYCAREYYSYDEGFAYWGQGTLVTVSS VL: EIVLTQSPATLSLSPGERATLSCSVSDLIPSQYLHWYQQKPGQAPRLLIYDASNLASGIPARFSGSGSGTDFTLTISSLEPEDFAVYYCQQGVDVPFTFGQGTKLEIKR , the value recorded as its Blocking activity (IC50), STAT3-luc reporter is 0.003
